Reference for the values: patent US10059704B2

quantity: melting point (°C)
Answers are plain numbers, in °C.

compound	unit_abbreviation	melting point
Fc1ccc(-c2ccc(-c3cn([C@H]4CN5CCC4CC5)nn3)cc2)cn1	°C	181
c1csc(-c2cn([C@H]3CN4CCC3CC4)nn2)c1 [Compound 53]	°C	137
Brc1cccc(-c2cn([C@H]3CN4CCC3CC4)nn2)c1 [Compound 83]	°C	188
Brc1csc(-c2cn([C@H]3CN4CCC3CC4)nn2)c1	°C	106
c1coc(-c2ccc(-c3cn([C@H]4CN5CCC4CC5)nn3)s2)c1 [Compound 62]	°C	180
c1cc(-c2cn([C@H]3CN4CCC3CC4)nn2)ccn1 [Compound 50]	°C	150
OCc1ccc(-c2ccc(-c3cn([C@H]4CN5CCC4CC5)nn3)o2)cc1 [Compound 84]	°C	209
OCc1ccc(-c2coc(-c3cn([C@H]4CN5CCC4CC5)nn3)c2)cc1 [Compound 90]	°C	202
Brc1coc(-c2cn([C@H]3CN4CCC3CC4)nn2)c1	°C	129
c1cc2cc(-c3cn([C@H]4CN5CCC4CC5)nn3)ccc2o1 [Compound 56]	°C	178

For each of the compounds below, state melting point.
1. Fc1ccc(-c2cn([C@H]3CN4CCC3CC4)nn2)cc1 [Compound 42]
2. Fc1ccccc1-c1cn([C@H]2CN3CCC2CC3)nn1 [Compound 44]
3. OC1(c2cn(-c3ccc(Br)cc3)nn2)CN2CCC1CC2 (centres unmarked)
4. OCc1cccc(-c2ccc(-c3cn([C@H]4CN5CCC4CC5)nn3)cc2)c1 [Compound 95]
5. OCc1cccc(-c2csc(-c3cn([C@H]4CN5CCC4CC5)nn3)c2)c1 [Compound 89]
6. CN1[C@@H]2CC[C@H]1C[C@@H](n1cc(-c3ccc4sccc4c3)nn1)C2 [Compound 25]
7. Brc1ccc(-c2cn([C@H]3CN4CCC3CC4)nn2)s1 [Compound 54]
8. COc1ccc2cc(-c3cn([C@H]4CN5CCC4CC5)nn3)ccc2c1 [Compound 49]

Result:
[180, 94, 214, 207, 211, 163, 146, 186]

For each of the compounds below, state melting point.
1. Brc1ccc(-c2cn([C@H]3CN4CCC3CC4)nn2)cc1 [Compound 41]
2. Fc1ccc(-c2cn([C@H]3CN4CCC3CC4)nn2)cn1 [Compound 51]

Result:
158
147
